- Tested on: PBMC
- Assay Notes: Human PBMC IL-2 assay
- Format: cell-based
- Cond: anti-CD3/CD28 stimulation overnight, IL-2 level
Readout Type: pEC50
Remember the convention: pEC50 equals -log10 of concentration in molar.

CC[C@@H]1CN2c3c(c(=O)n(C)c4ccc(C#N)nc34)OC[C@@H]2CN1[C@H](CC)c1ccc(F)c(Cl)c1 (stereo in doubt) [Compound 196] = 6.07
CC[C@@H]1CN2c3c(c(=O)n(C)c4ccc(C#N)nc34)OC[C@@H]2CN1[C@@H](CC)c1ccc(Cl)c(C(F)(F)F)c1 (stereo in doubt) [Compound 327] = 6.99
CC[C@@H]1CN2c3c(c(=O)n(C)c4ccc(C#N)nc34)OC[C@@H]2CN1[C@@H](CC)c1ccc(C)c(F)c1 (stereo in doubt) [Compound 339] = 7.89
CC[C@@H]1CN2c3c(c(=O)n(C)c4ccc(C#N)nc34)OC[C@@H]2CN1[C@@H](CC)c1ccc(C(F)(F)F)cc1Cl (stereo in doubt) [Compound 207] = 6.55
CC[C@@H]1CN2c3c(c(=O)n(C)c4ccc(C#N)cc34)OC[C@@H]2CN1[C@H](CC)c1ccc(C(F)(F)F)cc1 [Compound 211] = 6.76
CC[C@@H](c1ccc(C(F)(F)F)c(Cl)c1)N1C[C@H]2COc3c(c4nc(C#N)ccc4n(C)c3=O)N2C[C@H]1C (stereo in doubt) [Compound 324] = 7.31
CC[C@@H]1CN2c3c(c(=O)n(C)c4ccc(C#N)nc34)OC[C@@H]2CN1[C@H](CC)c1cccc(C(F)(F)F)c1 (stereo in doubt) [Compound 148] = 6.24
CC[C@@H]1CN2c3c(c(=O)n(C)c4ccc(C#N)nc34)OC[C@@H]2CN1[C@H](CC)c1ncc(C(F)(F)F)cn1 [Compound 330] = 6.94
CC[C@@H]1CN2c3c(c(=O)n(C)c4ccc(C#N)nc34)OC[C@@H]2CN1[C@@H](CC)c1ccc(C)c(Cl)c1 (stereo in doubt) [Compound 343] = 7.74
CC[C@@H]1CN2c3c(c(=O)n(C)c4ccc(C#N)nc34)OC[C@@H]2CN1[C@H](c1ccc(Cl)cc1)c1ccccn1 (stereo in doubt) [Compound 156] = 7.08

Now consider the entry below.
IN: Hi! What's the reported pEC50 for C[C@@H]1CN2c3c(c(=O)n(C)c4ccc(C#N)nc34)OC[C@@H]2CN1[C@H](C)c1ccc(C(F)(F)F)cc1 (stereo in doubt) [Compound 222] on PBMC?
OUT: 6.81

----------
- Experimental Target: DGKa (Homo sapiens (Human))
IC50 values, listed per item
Give just the number in nM; leave the unit off.

Field: example entries. Status: answers known.
Cc1ccccc1-n1cc(C2CCN(c3nc(=O)n(C)c4ccc(C#N)nc34)CC2)cn1 = 6600
CC[C@@H]1CN2c3c(c(=O)n(C)c4ccc(C#N)nc34)OC[C@H]2CN1[C@H](CC)c1ccc(C(F)(F)F)cc1 = 26
N#Cc1ccc2c(n1)c(N1CCC3(CC1)CC(c1ccc(SC(F)(F)F)cc1)=NO3)nc1nncn12 = 29

Now consider the entry below.
IN: Find the recorded IC50 belonging to `CC[C@H]1CN([C@H](c2ccc(S(F)(F)(F)(F)F)cc2)c2nc(C3CC3)cs2)[C@H](CC)CN1c1nc(=O)n(C)c2ccc(C#N)nc12` and report it.
OUT: 10

----------
- Experimental Target: DGKa (Homo sapiens (Human), UniProt P23743);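 also: biochemical DGK kinase assay, ADP-Glo luminescence from ADP made by phosphorylating 1,2-dioleoyl-sn-glycerol, 20 min compound preincubation then 40 min reaction at 25 °C, 1% DMSO control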
- Sequence (P23743 whole entry): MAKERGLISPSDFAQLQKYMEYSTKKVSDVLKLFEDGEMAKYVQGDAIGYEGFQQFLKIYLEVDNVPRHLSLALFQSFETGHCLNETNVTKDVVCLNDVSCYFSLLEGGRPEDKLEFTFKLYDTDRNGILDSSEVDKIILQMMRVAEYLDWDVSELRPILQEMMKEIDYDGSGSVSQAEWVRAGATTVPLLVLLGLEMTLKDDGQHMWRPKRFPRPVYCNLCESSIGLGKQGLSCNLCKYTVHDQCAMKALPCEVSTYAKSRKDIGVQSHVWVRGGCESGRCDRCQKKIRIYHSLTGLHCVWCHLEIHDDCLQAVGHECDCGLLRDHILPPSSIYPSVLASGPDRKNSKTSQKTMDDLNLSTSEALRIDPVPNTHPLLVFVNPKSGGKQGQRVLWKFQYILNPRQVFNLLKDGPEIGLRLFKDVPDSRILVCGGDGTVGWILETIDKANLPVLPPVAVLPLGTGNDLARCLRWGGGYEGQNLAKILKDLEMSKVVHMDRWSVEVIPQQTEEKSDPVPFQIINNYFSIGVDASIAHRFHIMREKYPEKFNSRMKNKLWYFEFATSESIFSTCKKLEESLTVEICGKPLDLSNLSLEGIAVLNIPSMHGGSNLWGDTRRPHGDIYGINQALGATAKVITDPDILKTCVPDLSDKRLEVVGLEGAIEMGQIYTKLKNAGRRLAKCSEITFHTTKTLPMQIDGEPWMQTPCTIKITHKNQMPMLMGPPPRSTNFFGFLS
- Assay Notes: biochemical
Readout Type: IC50
Report field: quantity (unit follows the number).

Field: example entries. Status: answers known.
CC[C@H]1CN([C@@H]2CCCCc3cc(C(F)(F)F)ccc32)[C@H](CC)CN1c1nc(=O)n(C)c2ccc(C#N)nc12 [Compound 45] = 0.245 µM
CC[C@H]1CN([C@H](CC)c2ccc(C(F)(F)F)nc2)[C@H](CC)CN1c1nc2nncn2c2ccc(C#N)nc12 (stereo in doubt) [Compound 112] = 0.011 µM
CC[C@H]1CN([C@@H](CC)c2cccc(C(F)(F)F)c2)[C@H](CC)CN1c1nc2nncn2c2ccc(C#N)nc12 (stereo in doubt) [Compound 105] = 0.004 µM
CC[C@@H]1CN(c2nc3nncn3c3ccc(C#N)nc23)[C@@H](C)CN1[C@@H](CC)c1ccc(C(F)(F)F)cc1 (stereo in doubt) [Compound 81] = 0.006 µM
CC[C@H]1CN([C@H](C)c2ccc(S(F)(F)(F)(F)F)cc2)[C@H](CC)CN1c1nc(=O)n(C)c2ccc(C#N)nc12 (stereo in doubt) [Compound 63] = 0.016 µM

IN: Find the recorded IC50 belonging to CC[C@H]1CN([C@@H](C)c2ccc(S(F)(F)(F)(F)F)cc2)[C@H](CC)CN1c1nc2nncn2c2ccc(C#N)nc12 (stereo in doubt) [Compound 88] and report it.
OUT: 0.018 µM

IN: Same question for CC[C@H]1CN([C@@H](CC)c2ccc(S(F)(F)(F)(F)F)cc2)[C@H](CC)CN1c1nc(=O)n(C)c2ccc(C#N)nc12 [Compound 28] please.
OUT: 0.012 µM

IN: Same question for CC[C@H]1C[C@@H](c2nc3cc(C)ccc3o2)CCN1c1nc(=O)n(C)c2cc(O[C@@H]3CCOC3)c(Cl)cc12 (single isomer, unassigned) [Compound 94] please.
OUT: 0.14 µM

----------
- Assay Notes: Human microsomal clearance assay
- Format: in vitro ADME
- Cond: pH 7.4; human liver microsomes 0.5 mg/mL, 1 uM compound
log10 of half-life at 1 μM values, listed per item
Give log10 of half-life at 1 μM, with half-life at 1 μM taken in h.

CC[C@@H]1CN2c3c(c(=O)n(C)c4ccc(C#N)nc34)OC[C@@H]2CN1[C@@H](CC)c1ccc(S(F)(F)(F)(F)F)cc1 (stereo in doubt) = 0.85
CC[C@@H](c1ccc(Cl)c(Cl)c1)N1C[C@H]2COc3c(c4nc(C#N)ccc4n(C)c3=O)N2C[C@H]1C (stereo in doubt) = 0.37
CC[C@@H]1CN2c3c(c(=O)n(C)c4ccc(C#N)nc34)OC[C@@H]2CN1[C@@H](CC)c1ccc(C(F)(F)F)cc1 = 0.59
Cn1c(=O)nc(N2CCC3(CC2)CC(c2ccc(OC(F)(F)F)cc2)=NO3)c2nc(C#N)ccc21 = 0.76
[2H]C([2H])([2H])n1c(=O)c2c(c3nc(C#N)ccc31)N1C[C@@H](CC)N([C@@H](CC)c3ccc(C(F)(F)F)cc3)C[C@H]1CO2 (stereo in doubt) = 0.53

IN: Find the recorded log10 of half-life at 1 μM belonging to C[C@@H]1CN2c3c(c(=O)n(C)c4ccc(C#N)nc34)OC[C@@H]2CN1[C@@H](C)c1ccc(C(F)(F)F)cc1 (stereo in doubt) and report it.
OUT: 0.20

IN: Same question for `CC[C@H]1CN([C@@H](CC)c2ccc(S(F)(F)(F)(F)F)cc2)[C@H](CC)CN1c1nc(=O)n(C)c2ccc(C#N)nc12` please.
OUT: 0.57

IN: Same question for `Cn1c(=O)nc(N2CCC3(CC2)COC(c2ccc(OC(F)(F)F)cc2)=N3)c2nc(C#N)ccc21` please.
OUT: 1.04

IN: Same question for CC[C@@H]1CN2c3c(c(=O)n(C)c4ccc(C#N)nc34)OC[C@@H]2CN1[C@@H](CC)c1ccc(Cl)c(Cl)c1 (stereo in doubt) please.
OUT: 0.37

IN: Same question for `CC[C@@H]1CN2c3c(c(=O)n(C)c4ccc(C#N)nc34)CC[C@@H]2CN1[C@H](CC)c1ccc(C(F)(F)F)cc1` please.
OUT: 0.63

IN: Same question for CC[C@@H]1CN2c3c(c(=O)n(C)c4ccc(C#N)nc34)OC[C@@H]2CN1[C@@H](CC)c1ccc(C(F)(F)F)c(Cl)c1 (stereo in doubt) please.
OUT: 1.41

----------
As a worked illustration, we turn to log10 IC50 data collected for DGKa (Homo sapiens (Human)).
Give log10 of IC50, with IC50 taken in µM.

CC[C@H]1CN([C@@H](c2ccc(S(F)(F)(F)(F)F)cc2)c2nc(C3CC3)cs2)[C@H](CC)CN1c1nc(=O)n(C)c2ccc(C#N)nc12 = -2.40
CC[C@H]1CN([C@H](CC)c2ccc(OC)cc2F)[C@H](CC)CN1c1nc2nncn2c2ccc(C#N)nc12 (stereo in doubt) = -1.85
Cn1c(=O)nc(N2CCC(Oc3ccc(OC(F)(F)F)cc3)CC2)c2nc(C#N)ccc21 = -0.37
CC[C@H]1CN(C(COC)c2ccc(S(F)(F)(F)(F)F)cc2)[C@H](CC)CN1c1nc(=O)n(C)c2ccc(C#N)nc12 (stereo partly shown) = -1.72
CC[C@H]1CN([C@@H](CC)c2ccc(C(F)(F)F)cc2)[C@H](CC)CN1c1nc2nccn2c2ccc(C#N)nc12 = -2.22

IN: Find the recorded log10 IC50 belonging to `CC[C@H]1CN([C@@H](CC)c2nc(C3CC3)no2)[C@H](CC)CN1c1nc2nncn2c2ccc(C#N)nc12` and report it.
OUT: -2.52

IN: Same question for `CC[C@@H]1CN(c2nc3nncn3c3ccc(C#N)nc23)[C@@H](CC)CN1C(=O)Nc1ccc(C(F)(F)F)cc1` please.
OUT: -1.24
